# number of dead mice (in percent) sixty minutes after amphetamine per entry
- Test system: toxicity of amphetamine in mice
- assay: amphetamine group toxicity (mortality rate)
- Assay type: in vivo
- experimental-context: substance 10 mg/kg i.p., 15 min later amphetamine 7 mg/kg
- Description: It is known that the toxicity of amphetamine is increased by administration of anti-depressive compounds, especially those that have a central nervous system stimulating activity, this activity being evidenced by an increased mortality in the test. The test substances were intraperitoneally injected and fifteen minutes later the test animals were administered amphetamine in a dose of 7 mg per kilogram. […]
measurement-kind: number of dead mice (in percent) sixty minutes after amphetamine (%)

# compound, target-under-test, measure-unit, readout-value
rows = [
    ("NC(=O)[C@@H]1CCCN1C(=O)[C@H](Cc1c[nH]cn1)NC(=O)C1CSCC(=O)N1.O (stereo partly shown) [Compound C]", "toxicity of amphetamine in mice", "%", 60),
    ("NC(=O)[C@@H]1CCCN1C(=O)[C@H](Cc1c[nH]cn1)NC(=O)[C@@H]1CCC(=O)N1 [TRH, pyroglutamyl-histidyl-proline amide, reference compound]", "toxicity of amphetamine in mice", "%", 20),
    ("NC(=O)[C@@H]1CCCN1C(=O)[C@H](Cc1c[nH]cn1)NC(=O)C1CNC(=O)N1.O.O (stereo partly shown) [Compound A]", "toxicity of amphetamine in mice", "%", 15),
    ("NC(=O)[C@@H]1CCCN1C(=O)[C@H](Cc1c[nH]cn1)NC(=O)c1cc(=O)[nH]c(=O)[nH]1.O.O [Compound B]", "toxicity of amphetamine in mice", "%", 70),
]
